Test system: CAKI-1 renal
Assay: NCI tumour cell line growth inhibition, 48 h
This section presents compounds with their documented TGI values.

{"Compound": "O=C1c2scc(-c3ccc(F)cc3)c2-n2cccc21", "Tested System": "CAKI-1 renal", "Meas Value": "> 100 µM"}
{"Compound": "CCOC(=O)NC(Nc1cccc(F)c1)(C(F)(F)F)C(F)(F)F", "Tested System": "CAKI-1 renal", "Meas Value": "> 100 µM"}
{"Compound": "Cc1ccc(/C(O)=C/c2nc3ccccc3nc2NC23CC4CC(CC(C4)C2)C3)cc1", "Tested System": "CAKI-1 renal", "Meas Value": "> 10 µM"}

Turning now to a further compound:
Incoming: Value lookup for TGI; key = `COc1ccc(-c2cc(-c3ccccc3)c3c(n2)-c2ccccc2NC(=O)C3)cc1`
Outgoing: > 100 µM

====

Tested on: SK-MEL-2 melanoma
Experiment: NCI tumour cell line growth inhibition, 48 h; in the data active means GI50 below about 0.43 µM; inactive means the rest
In this exercise, the only acceptable responses are 1.0 (active), 0.0 (inactive)

{"Given Smiles": "COc1ccc(/C=C/C(=O)/C=C(/C=C/c2ccc(OC)c(OC)c2)OB(F)F)cc1OC", "Qualitative Label": 0.0}
{"Given Smiles": "COc1ccc2c(CN3CCC(CO)CC3)cc3cc4c(cc3c2c1)OCO4", "Qualitative Label": 1.0}
{"Given Smiles": "COc1ccc(C(=O)c2cc(OC)c(OC)c(OC)c2)cc1/C=C/C(=O)c1ccc(O)cc1", "Qualitative Label": 0.0}
{"Given Smiles": "COc1cc(-c2cc(C(=O)Nc3nc4ccccc4s3)nc3cc(-c4ccccc4)nn23)cc(OC)c1OC", "Qualitative Label": 0.0}
{"Given Smiles": "COC(=O)C/C(C)=C/[C@@H](O)[C@H]1O[C@@H]2CC/C(Cl)=C/C/C=C(/C)[C@H](OC(C)=O)CC(=O)O[C@@H]1C2", "Qualitative Label": 0.0}

Incoming: What did the test return for `O=C1C(Cl)=C(Oc2ccccc2)C(=O)c2ccccc21` ?
Outgoing: 0.0

Incoming: # repeat for `C=C1C(=O)O[C@H]2[C@H]1CC/C(COC(=O)/C=C/c1cccnc1)=C\CC[C@@]1(C)O[C@@H]21`
Outgoing: 0.0

Incoming: # repeat for `CCOC(=O)c1sc2ncn(Cc3cccc(Cl)c3)c(=O)c2c1C`
Outgoing: 0.0

Incoming: # repeat for `COc1cc2c3c(n(CCCO)c(=O)c2cc1OC)-c1cc2c(cc1C3=O)OCO2`
Outgoing: 0.0

====

This section presents molecules with their documented TGI values.
Test system: NCI-H23 lung
Assay: NCI tumour cell line growth inhibition, 48 h
Numbers only; they are read as µM.

{"Given Smiles": "O=C(Nc1cccc(NS(=O)(=O)c2ccc(F)cc2)c1)c1ccc(-c2ccccc2)cc1", "Meas Value": 10.5}

Turning now to a further molecule:
Incoming: Value lookup for TGI; key = `O=C1c2cccnc2-c2nc(-c3ccccn3)cc3c2c1nc1ccccc13`
Outgoing: 1.78

====

System: RPMI-8226 leukemia
Experiment: NCI tumour cell line growth inhibition, 48 h
Measurement Label: TGI (µM)
Numbers only; they are read as µM.

Solved entries (count: 2):
{"Compound": "Cc1cccc(/C=N/NC(=S)NC2CCCCC2)n1", "Measurement Label": "TGI", "Meas Value": 45.4}
{"Compound": "O=C(c1c(F)c(F)c(F)c(F)c1F)n1c(=O)[nH]c2ccccc21", "Measurement Label": "TGI", "Meas Value": 25.1}

Incoming: Value lookup for TGI; key = `CCOC(=O)/C(=C\NC[C@@H](C)O)c1nc2ccccc2[nH]1`
Outgoing: 63.3

Incoming: # repeat for COC1C(=[N+]=[N-])C(=O)NC(=O)N1C1OC(COC(c2ccccc2)(c2ccccc2)c2ccccc2)C(O)C1O (stereo not drawn)
Outgoing: 61.8

Incoming: # repeat for `N#CCN(Cc1ccccc1)[C@H]1CCC[C@]1(O)/C=C/c1ccc2c(c1)OCO2`
Outgoing: 46

Incoming: # repeat for `COc1c(O)cc2oc3cc(O)c(CC=C(C)C)c(O)c3c(=O)c2c1C/C=C(\C)CCC=C(C)C`
Outgoing: 31.3

Incoming: # repeat for CCOC(=O)N(C)CCC1CC=CC(=O)C1c1cccc(OC)c1OC (stereo not drawn)
Outgoing: 46.6

Incoming: # repeat for `CC(C)(C)c1ccc(Oc2ccc(C#N)c(C#N)c2)c(C(C)(C)C)c1`
Outgoing: 43.1

Incoming: # repeat for `Nc1nc(SCC(=O)O)[nH]c(=O)c1N`
Outgoing: 99.7

Incoming: # repeat for `Cc1c(C(=O)CCl)c(=O)n(-c2ccccc2)n1C`
Outgoing: 4.62

Incoming: # repeat for `COC1=C(OC)C(=O)c2cc(SC)c(=O)c(SC)cc2C1=O`
Outgoing: 40.2

Incoming: # repeat for `O=c1oc2ccccc2c(Cl)c1Cl`
Outgoing: 8.66

Incoming: # repeat for `Nc1c(O)c2c(c(O)c1Cl)C(=O)C=CC2=O`
Outgoing: 44.8

Incoming: # repeat for `CC1=CC(=C(c2ccc(N)c(C)c2)c2ccc(N)c(C)c2)C=CC1=N`
Outgoing: 29.6

Incoming: # repeat for COCC1N=C(c2ccc(OC)c(OCc3ccccc3)c2OC)O[C@H]1c1ccccc1 (stereo partly drawn)
Outgoing: 36.9

Incoming: # repeat for `CN(C)CCCNC(=O)c1cc(NC(=O)c2cc(NC(=O)CCCN3c4ccccc4C=Cc4ccccc43)cn2C)cn1C`
Outgoing: 6.21

Incoming: # repeat for `O=C(Nc1ncc([N+](=O)[O-])s1)c1cccc([N+](=O)[O-])c1`
Outgoing: 5.41

Incoming: # repeat for `O=C(Nc1ccccc1)O/N=C1/CCCC/C1=C\c1ccccc1`
Outgoing: 52.5

====

Test system: KM12 colon
Assay: NCI tumour cell line growth inhibition, 48 h; in the data active = GI50 below about 0.43 µM; inactive = the rest
In this exercise, the only acceptable responses are active, inactive

{"Given Smiles": "O=c1oc2ccccc2c(Cl)c1Cl", "Tested System": "KM12 colon", "Qualitative Label": "inactive"}

Incoming: What did the test return for `COc1cccc(-c2nc(-c3ccc(NS(=O)(=O)c4ccccc4)cc3)[nH]c2-c2ccnc(Br)c2)c1` ?
Outgoing: inactive

Incoming: # repeat for `C=C(CN1CCc2ccccc2C1)c1ccc(/C=C/C(=O)Nc2ccccc2N)cc1`
Outgoing: inactive

====

This section presents compounds with their documented TGI values.
Tested on: PC-3 prostate
Assay: NCI tumour cell line growth inhibition, 48 h

Solved entries (count: 6):
{"Compound": "COC1/C=C/C(C)C(C(C)C(OC)C(C)CCC(=O)C(C)C(CC(=O)O)OC)OC(=O)/C=C/C=C(\\C)CC(OC)C(OC)C2=CC(=O)O[C@@H](C(C)C(OC)CC(OC)/C=C/C(C)C(O)C1)[C@H]2O (stereo partly drawn)", "Tested System": "PC-3 prostate", "TGI": "> 1.07 µM"}
{"Compound": "COC(=O)c1ccc(-c2nc3cc(F)c(F)cc3nc2C#N)cc1", "Tested System": "PC-3 prostate", "TGI": "26.6 µM"}
{"Compound": "COC(=O)C1C(O)C(C)C(O)C(C)/C=C\\C=C(C)C(=O)Nc2c(C)c(OC(C)=O)c3c(c2O)C(=O)C(C)=C2OCOC(=C23)C(C)=CC(C)(O)C(O)C(C)C1O (stereo not drawn)", "Tested System": "PC-3 prostate", "TGI": "> 100 µM"}
{"Compound": "COc1ccc(-c2c(C#N)c(N)n(C3OCC(O)C(O)C3O)c(=S)c2C#N)cc1 (stereo not drawn)", "Tested System": "PC-3 prostate", "TGI": "> 100 µM"}
{"Compound": "O=C1CCCSCCCC(=O)CCCSCCC1", "Tested System": "PC-3 prostate", "TGI": "> 100 µM"}
{"Compound": "COc1cc(/C=C2\\N=C(c3ccccc3)N(c3ccc(S(=O)(=O)Nc4nccs4)cc3)C2=O)ccc1O", "Tested System": "PC-3 prostate", "TGI": "> 100 µM"}

Incoming: Value lookup for TGI; key = `NCCCn1c2c(c3ccccc3c1=O)C(=O)c1cc3c(cc1-2)OCO3`
Outgoing: 7.41 µM

Incoming: # repeat for `CCOC(=O)NC(OCCN(C)C)(C(F)(F)F)C(F)(F)F`
Outgoing: > 100 µM

====

Tested on: SF-295 CNS
Assay: NCI tumour cell line growth inhibition, 48 h
Measurement Label: log10(TGI) (log10 of the value in µM)
Short version: log10 scale, TGI, µM.

Incoming: Value lookup for log10(TGI); key = `O=[N+]([O-])/C(C(Cl)=C(Cl)Cl)=C(\Nc1cccc2cccnc12)Sc1ccccc1`
Outgoing: 1.71

Incoming: # repeat for `CC1=NN(c2cccc(Cl)c2)C(=N/c2nc3ccccc3s2)/C1=C\c1ccccc1O`
Outgoing: 1.94

Incoming: # repeat for Cc1cc2c(c(C=Nc3ccc(N(C)C)cc3)c1)OC1(C=C2)Oc2ccccc2C(=O)N1C (centres undefined)
Outgoing: 1.67

Incoming: # repeat for `Clc1ccc(Nc2ccnc(NCCNc3ccnc4cc(Cl)ccc34)n2)cc1`
Outgoing: 0.38

Incoming: # repeat for `COc1ccc(C(=O)c2cc(OC)c(OC)c(OC)c2)cc1/C=C/C(=O)c1ccc(O)cc1`
Outgoing: 1.30
